These data points were gathered from patent US20240158500A1.

Molecular target: T1, purified CD160 (SPR analyte) (UniProt O95971 25-159, limits assumed)
T1 sequence (looked up): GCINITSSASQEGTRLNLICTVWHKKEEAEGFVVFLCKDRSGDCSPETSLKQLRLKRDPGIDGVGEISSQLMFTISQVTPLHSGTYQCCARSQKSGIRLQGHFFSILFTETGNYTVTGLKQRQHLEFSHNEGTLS
Test: SPR, Biacore T200, scFv captured on CM5 chip, CD160 as analyte, single-cycle kinetics, 1:1 Langmuir fit
Give kon for every item shown.
Give the quantity in M⁻¹ s⁻¹, number only.

// sample anti-CD160 scFv clone 12 (scFv, Rat scFv, VH-linker-VL) scFv: EVQLVESGGGFVQPGGSLKLSCAASGFTFSNYGMAWVRQAPKKGLEWVASISSGRGNTYYRDSVKGRFTISRDNAKNTQYLQMDSLRSEDTATYYCVTHNYESTIFDYWGQGVMVTVSSGGGGSGGGGSGGGGSEIVLTQSPTTMTASPGEKVTIICRASSSVSYMHWYQQKPGASPKPWIYETSKLASGVPDRFSGSGSGTSYSLTFNNMEAEDAATYYCQQWNYPSMYTFGAGTKLELKR , its kon was 205000

// sample anti-CD160 scFv clone 1 (C123) (scFv, Rat scFv, VH-linker-VL) scFv: EVKLVESGGGLVQPGRSLKLSCAASGFIFSNYAMAWVRQAPTKGLEWVASVNSGGANTYYRDSVKGRFTISRDNAKNTQYLHIDSLRSEDTATYYCATHNYESTVFDYWGQGAMVTVSSGGGGSGGGGSSGGGGSEIVLTQSPTTMTASPGEKVTITCRASSSVSYMHWYQQKPGASPKPWIYETSKLASGVPDRFSGSGSGTSYSLTINNMEAEDAATYYCQQWNYPSMYTFGAGTKLELKR , its kon was 179000

// sample anti-CD160 scFv clone 10 (scFv, Rat scFv, VH-linker-VL) scFv: EVQLVESGPGLVQPSETLSLTCTVSGFSLTSYGVNWFRQPPGKGLEWMGTIWNDGGTDYNSALKSRLSISRDTSKSQVFLKMNSLQTEDTAIYFCARGFEYWGQGTLVTVSSGGGGSGGGGSGGGGSDIVMTQSPKSMSISVGDRVTMNCKASQNVGKNIAWYQQKPGQSPKLLIYYASNRYTGVPDRFTGSGSGTDFTLTITNMQTEDLAVYYCLQYNYNPWTFGGGTKLELKR , its kon was 275000

// sample anti-CD160 scFv clone 7 (scFv, Rat scFv, VH-linker-VL) scFv: EVQLVESGPGLVQPSETLSLTCTVSGFSLTSHGVNWFRQPPGKGLEWMGTIWNDGGTDYNSALKSRLSIIRDTSKGQVFLKMNSLQTEDTAIYFCARGLAYWGQGTLVTVSSGGGGSGGGGSGGGGSDIQMTQSPASLSASLGETVNIECLASEDIYSDLAWYQQKPGKSPQLLIYNANSLQNGVPSRFSGSGSGTQYSLKINSLQSEDVATYFCQQYNNYPWTFGGGTKLEIKR , its kon was 1.06e+06

// sample anti-CD160 scFv clone 5 (C10) (scFv, Rat scFv, VH-linker-VL; also called 010) scFv: QVQLKESGPGLVQPSETLSLTCTVSGFSLTNYGINWFRQPPGKGLEWMGTIWNDGGTDYNSALKSRLTISRDTSKSQVFLKMNSLQTEDTAIYFCARGMEAWGQGASVTVSSGGGGSGGGGSGGGGSDIQLTQSPSLLSASVGDRVTLSCKGSQNINNYLAWYQQKLGEAPKLLIYNTNSLQTGIPSRFSGSGSGTDYTLTISSLQPEDFATYFCLQHNSGYTFGAGTKLEIKR , its kon was 1.65e+06
